Assay: Pharmacokinetics study after pulmonary (endotracheal) administration to rats
Parameters: species or system Sprague Dawley rats
Details: Sprague-Dawley, rat, in vivo, inhaled or intranasal; endotracheal administration, 0.5 mg/kg, plasma TPL, n = 4
parameter: AUC(0-t) (ng·h/mL)
Respond with the bare value in ng·h/mL.

Input line: Reported AUC(0-t), molecule CC(C)[C@]12O[C@H]1[C@@H]1O[C@]13[C@]1(O[C@H]1C[C@H]1C4=C(CC[C@@]13C)C(=O)OC4)[C@@H]2O [Free TPL, Triptolide] : ____
Output line: 186

###

Test: Pharmacokinetics study after pulmonary (endotracheal) administration to rats
Set-up: species or system Sprague Dawley rats
Conditions: Sprague-Dawley, rat, in vivo, inhaled or intranasal; endotracheal administration, 0.5 mg/kg, plasma TPL, n = 4
Experimental: Sprague–Dawley (SD) rats were divided randomly into five groups (n = four per group). Rats were fasted for 12 h before the experiment, but allowed water ad libitum. […] The plasma was analyzed by Agilent 1290 Ultra High Performance Liquid Chromatograph with Agilent 6460 Triple Quadrupole Mass Spectrometer system (UHPLC-QQQ MS/MS, Santa Clara, USA) (Xue et al., [2012]; Zhuang et al., [2013]). […] 62 The specificity of the established method was assessed by comparing the […]
parameter: AUC(0-inf) (ng·h/mL)
Respond with the bare value in ng·h/mL.

Input line: Reported AUC(0-inf), molecule CC(C)[C@]12O[C@H]1[C@@H]1O[C@]13[C@]1(O[C@H]1C[C@H]1C4=C(CC[C@@]13C)C(=O)OC4)[C@@H]2O [Free TPL, Triptolide] : ____
Output line: 225
